system: Oxo-M binding receptor of muscarinic receptors (rat forebrain synapse membranes)
Construct: under head M1
procedure-summary: [3H]-oxotremorine-M ([3H]-Oxo-M) affinity screening test
assay-setup: inhibition of specific [3H]-Oxo-M binding; under head M1
I'd appreciate it if you could supply pIC50 values for the items below.
When answering, recall that pIC50 equals minus log10 of the concentration in mol/L, and write that number alone.

Write down the reported pIC50 of C#CCON=C(CCN1CCCC1=O)C1=CCCN(C)C1 , test system: Oxo-M binding receptor of muscarinic receptors (rat forebrain synapse membranes).
6.42

Write down the reported pIC50 of COC(=O)C1=CCCN(C)C1 [Arecoline, reference compound] , test system: Oxo-M binding receptor of muscarinic receptors (rat forebrain synapse membranes).
6.85

Write down the reported pIC50 of CN1CCC=C(C#CCN2CCCC2=O)C1 , test system: Oxo-M binding receptor of muscarinic receptors (rat forebrain synapse membranes).
7.85

Write down the reported pIC50 of CN1CCC=C(C(CCN2CCCC2=O)=NO)C1 , test system: Oxo-M binding receptor of muscarinic receptors (rat forebrain synapse membranes).
7.13

Write down the reported pIC50 of CN1CCC=C(C(CN2CCCC2=O)=NO)C1 , test system: Oxo-M binding receptor of muscarinic receptors (rat forebrain synapse membranes).
9.05

Write down the reported pIC50 of CN1CCC=C(C(CN2CCCC2=O)=NOCc2ccccc2)C1 (mixture of isomers) , test system: Oxo-M binding receptor of muscarinic receptors (rat forebrain synapse membranes).
6.79

Write down the reported pIC50 of C#CCON=C(CN1CCCC1=O)c1cccnc1 , test system: Oxo-M binding receptor of muscarinic receptors (rat forebrain synapse membranes).
6.49
